Numbers sourced from the RNAGym collection of RNA variant scans (doi:10.1073/pnas.2313332121).

B1: TPR 5TU (parent)
chain: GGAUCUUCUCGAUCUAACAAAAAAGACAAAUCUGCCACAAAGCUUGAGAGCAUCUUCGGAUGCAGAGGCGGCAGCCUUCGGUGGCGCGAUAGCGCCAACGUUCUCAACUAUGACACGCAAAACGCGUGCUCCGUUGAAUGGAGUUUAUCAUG

# Variants of: B1
# run-description: polymerase ribozyme fitness, log enrichment relative to wild type (log ratio); higher = more active; in vitro selection for triplet polymerase activity
Fewer inactive variants are shown than the library holds.
As shown below, each of these variants has a reported polymerase ribozyme fitness (log ratio) value.
Answer as a number with no unit attached.

[
  {
    "mutation-label": "A47G G133C C149G",
    "readout-value": -3.65
  },
  {
    "mutation-label": "A40C C51U G84A",
    "readout-value": -0.15
  },
  {
    "mutation-label": "G50C C123U",
    "readout-value": -2.4
  },
  {
    "mutation-label": "A60U C93A",
    "readout-value": -3.06
  }
]

// Input: A37C C38U U53A A91G . Output its polymerase ribozyme fitness (log ratio) only.
-3.98

// Input: U44A A52C . Output its polymerase ribozyme fitness (log ratio) only.
-3.94

// Input: G11A A39U . Output its polymerase ribozyme fitness (log ratio) only.
-3.28

// Input: G81A C85G . Output its polymerase ribozyme fitness (log ratio) only.
-1.86

// Input: U6A C14U U82C G86A . Output its polymerase ribozyme fitness (log ratio) only.
-4.09

// Input: A19C C125U . Output its polymerase ribozyme fitness (log ratio) only.
0.16

// Input: C38G A98U A122C G141C . Output its polymerase ribozyme fitness (log ratio) only.
-2.06

// Input: G58C C95U . Output its polymerase ribozyme fitness (log ratio) only.
-0.651

// Input: C5A U6G U82C C95G . Output its polymerase ribozyme fitness (log ratio) only.
-2.28

// Input: U6A G83C . Output its polymerase ribozyme fitness (log ratio) only.
-0.841

// Input: A30U U134C . Output its polymerase ribozyme fitness (log ratio) only.
-3.45

// Input: A40U . Output its polymerase ribozyme fitness (log ratio) only.
0.097

// Input: A22U G83C G84A U101A C123A . Output its polymerase ribozyme fitness (log ratio) only.
-4.08

// Input: U56C U102G A142G . Output its polymerase ribozyme fitness (log ratio) only.
-3.95

// Input: U6C C14U C38U U61A U145C . Output its polymerase ribozyme fitness (log ratio) only.
-4.04

// Input: C85U C103G . Output its polymerase ribozyme fitness (log ratio) only.
-3.48

// Input: U15A A21G A49G C96G . Output its polymerase ribozyme fitness (log ratio) only.
-1.26

// Input: C99A G143A . Output its polymerase ribozyme fitness (log ratio) only.
-2.02

// Input: A41C G86U C123U . Output its polymerase ribozyme fitness (log ratio) only.
-2.13
